Test: Subcutaneous pharmacokinetics in rats
Type: in vivo, male Wistar rats
Details: male, Wistar, sc; s.c. 3 mg/kg; rat plasma; analyte prodrug
Method: The pharmacokinetic properties of compounds 1 and 4 were assessed by subcutaneous injection to 4 male Wistar rats (3 mg/kg; DMSO:20% HPBCD (1:9)). During the studies, blood was collected at different time points, from tail vein, spun at 1500×g in a refrigerated centrifuge (4° C.) for 15 min, and the plasma obtained was stored at −80° C. until further analysis. The plasma samples collected were analysed for compound 1, compound 4 and opicapone exposure. […]
Endpoint Label: Tmax

INSERT INTO assay_data (smiles_structure, result) VALUES
  ('Cc1c(Cl)c(C)[n+]([O-])c(Cl)c1-c1noc(-c2cc(OCOP(=O)(O)O)c(O)c([N+](=O)[O-])c2)n1', '30 min'),
  ('Cc1c(Cl)c(C)[n+]([O-])c(Cl)c1-c1noc(-c2cc(OP(=O)(O)O)c(O)c([N+](=O)[O-])c2)n1', '60 min');
